test.system: T1, Human α-actinin-2 EF3-4 (positions 827-894) (human, UniProt P35609 827-894)
T1 construct: α-actinin-2, human, third and fourth EF hands, positions 827-894; also called α-actinin-2 EF hands 3-4; source: E. coli Rosetta pLysS, purified (Ni-NTA, Glutathione Sepharose, Tev cleavage, Superdex 75); not shown: His, N-terminal, cleaved; GST, N-terminal, cleaved
T1 sequence (P35609 827-894): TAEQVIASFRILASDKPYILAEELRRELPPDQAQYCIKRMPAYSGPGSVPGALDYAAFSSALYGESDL
procedure.details: ITC; MicroCal PEAQ, 25 °C, 25 mM HEPES pH 7.5, 150 mM NaCl; syringe 500 μM CaMKIIα peptide, cell 50 μM EF3-4; single site binding model
recorded.conditions: both partners purified
pKd: −log10 of the molar value.
endpoint: pKd

[[record]]
binder = "LKKFNARRKLKGAILAAMLA (peptide, UniProt P11275 290-309, looked up, CaMKIIα regulatory segment, residues 290-309; Probably a synthetic peptide; also called AA CaMKIIα 290-309; N-terminally shifted regulatory segment peptide (AA)) [CaMKIIα 290-309 peptide AA (T305A/T306A)]"
result_number = 6.84

[[record]]
binder = "NARRKLKGAILTAMLATRNFSG (peptide, UniProt P11275 294-315, looked up, Probably a synthetic peptide; also called T306A regulatory segment) [CaMKIIα 294-315 peptide T306A]"
result_number = 4.70

[[record]]
binder = "LKKFNARRKLKGAILTTMLA (peptide, UniProt P11275 290-309, looked up, CaMKIIα regulatory segment, residues 290-309; Probably a synthetic peptide; also called WT CaMKIIα 290-309; N-terminally shifted regulatory segment peptide (WT)) [CaMKIIα 290-309 peptide WT]"
result_number = 5.46

[[record]]
binder = "NARRKLKGAILAAMLATRNFSG (peptide, UniProt P11275 294-315, looked up, Probably a synthetic peptide; also called AA isolated regulatory segment) [CaMKIIα 294-315 peptide T305A/T306A]"
result_number = 4.83

[[record]]
binder = "NARRKLKGAILATMLATRNFSG (peptide, UniProt P11275 294-315, looked up, Probably a synthetic peptide; also called T305A regulatory segment) [CaMKIIα 294-315 peptide T305A]"
result_number = 4.71


Source of measurements: paper doi:10.1101/2025.03.18.643923
